Test: Pharmacokinetics of prodrug and tapentadol following IV administration to rats
Details: male, Sprague Dawley, in vivo; Table 7; prodrug in rat plasma; IV 2 mg/kg; read-out: Prodrug Cmax ± sd
Observed Property: Cmax (ng/mL)
Give the quantity in ng/mL, number only.

INSERT INTO assay_data (record_smiles, observed_property, result_unit, measurement) VALUES
  ('CC[C@@H](c1cccc(OC(=O)N(C)CCNC(=O)[C@H](CCCCN)NC(=O)CC(=O)O)c1)[C@@H](C)CN(C)C', 'Cmax', 'ng/mL', 1460);

Prompt: What does the data say about its Cmax? Entry: "CC[C@@H](c1cccc(OC(=O)N(C)CC(C)(C)CNC(=O)[C@H](CCCNC(=N)N)NC(=O)CC(=O)O)c1)[C@@H](C)CN(C)C"
Response: 988

###

Experiment: Pharmacokinetics of prodrug and tapentadol following IV administration to rats
Settings: male, Sprague Dawley, in vivo; prodrug in rat plasma; TP-1 IV 2 mg/kg (3 μmol/kg); read-out: TP-1 Cmax ± sd
Observed Property: Cmax (ng/mL)
Give the quantity in ng/mL, number only.

Prompt: What does the data say about its Cmax? Entry: "CC[C@@H](c1cccc(OC(=O)N(C)CCNC(=O)[C@H](CCCNC(=N)N)NC(=O)CC(=O)O)c1)[C@@H](C)CN(C)C"
Response: 965

###

Test system: norepinephrine uptake into rat hypothalamus synaptosomes
Assay: In vitro functional norepinephrine uptake assay
Format: biochemical
Details: [3H] norepinephrine incorporation into rat hypothalamus synaptosomes, 37° C., 20 min
Structures can show the parent of a compound that is named as a salt.
Observed Property: IC50 (nM)
Give the quantity in nM, number only.

Prompt: What does the data say about its IC50? Entry: CC[C@@H](c1cccc(O)c1)[C@@H](C)CN(C)C [Tapentadol, hydrochloride]
Response: 390

###

Test: Plasma and cerebrospinal fluid penetration following IV administration to rats
Assay type: in vivo, rat
Conditions: male, Sprague Dawley, rat, in vivo, rats, IV, 2 minutes after dosing; TP-1 10 mg/kg, tapentadol 4 mg/kg; read-out: Compound conc. in CSF
Observed Property: concentration at 2 min (ng/mL)
Give the quantity in ng/mL, number only.

Prompt: What does the data say about its concentration at 2 min? Entry: "CC[C@@H](c1cccc(OC(=O)N(C)CCNC(=O)[C@H](CCCNC(=N)N)NC(=O)CC(=O)O)c1)[C@@H](C)CN(C)C"
Response: 65.3

Where these numbers come from: patent US9238020B2
